Kindly state Activity for each of the entries shown.
Test system: K562
assay-method-text: Cell cycle arrest in human K562 cells assessed as accumulation at G0/G1 phase at total growth inhibitory compound concentration 24 hrs using propidium iodide staining by FACS analysis (reference value: 35%)
Assay type: functional
Design: scale not given: the % may be the effect or the level left
Numbers only, in %.

Worked cases, Activity given:
* N#C/C(=C\c1ccc2c(c1)OCO2)n1nnc2ccccc21 | 10.9
* N#C/C(=C\c1ccc(Br)cc1)n1nnc2ccccc21 | 42.25
* Cc1ccc(/C=C(\C#N)n2nnc3cc(Cl)c(Cl)cc32)cc1 | 18.5

Proceed to the following item.
input: // query Activity value for entry COc1ccc(/C=C(\C#N)n2nnc3ccccc32)cc1
output: 5.5

====

System: SK-MES-1
assay-method-text: Antiproliferative activity against human SKMES1 cells after 96 hrs by MTT assay
Format: functional
experimental-setup: SK-MES-1, 96 h
Kindly state CC50 for each of the entries shown.
Numbers only, in µM.

Worked cases, CC50 given:
• Cc1ccc(/C=C(\C#N)n2nnc3ccccc32)cc1 = 1.7
• N#C/C(=C\c1ccc2c(c1)OCO2)n1nnc2ccccc21 = 3.3
• Sc1ncnc2nc[nH]c12 [MERCAPTOPURINE ANHYDROUS] = 58
• N#C/C(=C\c1ccc(Br)cc1)n1nnc2cc(Cl)c(Cl)cc21 = 10

Hi team, please reply with CC50 for each item in this list.
1. COc1ccc(/C=C(\C#N)n2nnc3ccccc32)cc1
2. COc1cc([C@@H]2c3cc4c(cc3[C@@H](O[C@@H]3O[C@@H]5CO[C@@H](C)O[C@H]5[C@H](O)[C@H]3O)[C@H]3COC(=O)[C@H]23)OCO4)cc(OC)c1O [ETOPOSIDE]
3. N#C/C(=C\c1ccc(Br)cc1)n1nnc2ccccc21
4. Cc1ccc(/C=C(\C#N)n2nnc3cc(Cl)c(Cl)cc32)cc1

output:
0.6
0.3
2.4
27

====

assay-method-text: Cytotoxicity against human MT4 cells infected with HTLV-1 after 96 hrs by MTT assay
Type: cell-based
Mark satisfied only for CC50 at 96 h values smaller than 8 µM; exact matches and larger values are not satisfied.

# count of solved cases: 3
* N#C/C(=C\c1ccc(Cl)cc1)n1nnc2ccccc21 | satisfied
* N#C/C(=C\c1cccs1)n1nc2ccccc2n1 | not satisfied
* Cc1ccc(/C=C(\C#N)n2nnc3ccccc32)cc1 | satisfied

input: Regarding COc1ccc(/C=C(\C#N)n2nnc3ccccc32)cc1 , kindly confirm whether its CC50 at 96 h is beneath 8 µM.
output: satisfied

input: Param item: N#C/C(=C\c1ccccc1[N+](=O)[O-])n1nnc2ccccc21
output: not satisfied

input: Param item: COc1ccc(/C=C(\C#N)n2nnc3ccccc32)cc1OC
output: satisfied

input: Param item: COc1cc(/C=C(\C#N)n2nnc3ccccc32)cc(OC)c1OC
output: satisfied

input: Param item: N#C/C(=C\c1ccc([N+](=O)[O-])cc1)n1nc2ccccc2n1
output: satisfied

input: Param item: N#C/C(=C\c1ccccc1I)n1nnc2ccccc21
output: not satisfied

input: Param item: N#C/C(=C\c1ccc(Br)cc1)n1nnc2ccccc21
output: satisfied

input: Param item: COc1ccc(/C=C(\C#N)n2nnc3cc(Cl)c(Cl)cc32)cc1
output: not satisfied

input: Param item: Sc1ncnc2nc[nH]c12 [MERCAPTOPURINE ANHYDROUS]
output: satisfied

input: Param item: Cc1cc2nnn(/C(C#N)=C/c3cccc([N+](=O)[O-])c3)c2cc1C
output: satisfied

input: Param item: COc1ccc(/C=C(\C#N)n2nc3ccccc3n2)cc1OC
output: not satisfied

input: Param item: N#C/C(=C\c1cccc([N+](=O)[O-])c1)n1nnc2cc(C(F)(F)F)ccc21
output: satisfied

====

assay-method-text: Cytotoxicity against human MT4 cells infected with HTLV-1 after 96 hrs by MTT assay
Assay type: cell-based
Mark Satisfied only for CC50 at 96 h values smaller than 20 µM; exact matches and larger values are Not satisfied.

# count of solved cases: 7
- N#C/C(=C\c1ccc(F)cc1)n1nc2ccccc2n1: Not satisfied
- N#C/C(=C\c1ccco1)n1nc2ccccc2n1: Not satisfied
- N#C/C(=C\c1ccc(C(=O)O)cc1)n1nc2ccccc2n1: Satisfied
- N#C/C(=C\c1ccccc1)n1nnc2ccccc21: Satisfied
- N#C/C(=C\c1ccc(Br)cc1)n1nnc2cc(Cl)c(Cl)cc21: Satisfied
- COc1cccc(/C=C(\C#N)n2nnc3ccccc32)c1: Satisfied
- N#C/C(=C\c1ccc(C(=O)O)cc1)n1nnc2ccccc21: Satisfied

input: Regarding Cc1cc2nnn(/C(C#N)=C/c3ccc(Cl)cc3)c2cc1C , kindly confirm whether its CC50 at 96 h is beneath 20 µM.
output: Not satisfied
